# EXPERIMENTAL SYSTEM: T1, human PD-L1 on cells (PHA-activated human T cells); PD-L1-transfected CHO-S cells; A375 melanoma cells; … (human, UniProt Q9NZQ7 19-290)
# T1 construct: whole, on cells; also called PD-L1 expressing T cells; PD-L1 expressing CHO-S cells
# T1 sequence (Q9NZQ7 19-290): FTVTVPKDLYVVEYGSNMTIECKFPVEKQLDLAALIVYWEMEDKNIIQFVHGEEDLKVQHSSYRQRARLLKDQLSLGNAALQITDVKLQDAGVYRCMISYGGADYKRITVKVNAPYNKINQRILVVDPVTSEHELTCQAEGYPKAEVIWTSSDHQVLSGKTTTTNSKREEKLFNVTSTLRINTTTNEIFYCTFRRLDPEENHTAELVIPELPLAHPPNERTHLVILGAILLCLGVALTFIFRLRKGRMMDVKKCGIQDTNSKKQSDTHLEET
# ASSAY PROCEDURE: flow cytometry on A375 human melanoma cells, biotin-labeled anti-human IgG Fcγ and streptavidin-PE, MFI
Let's look at some binders and their measured EC50 (read off the curve).
PROPERTY MEASURED: EC50 (read off the curve)

• PL2#3 mtIgG1 (N297A) (antibody, V domains shown, N297A mutant of human IgG1 Fc backbone) VH: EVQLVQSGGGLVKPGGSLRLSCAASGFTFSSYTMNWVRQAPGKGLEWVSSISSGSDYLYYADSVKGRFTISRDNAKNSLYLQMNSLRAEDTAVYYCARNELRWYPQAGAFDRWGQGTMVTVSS VL: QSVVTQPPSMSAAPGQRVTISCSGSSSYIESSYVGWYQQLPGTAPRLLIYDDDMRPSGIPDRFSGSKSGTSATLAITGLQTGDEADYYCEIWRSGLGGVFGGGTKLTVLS = ~2 ng/mL
• PL3#7-43 mtIgG1 (antibody, V domains shown, Antibody was biotinylated (NHS-PEG4-biotin, sites not specified) for the Octet assay of Table 11., N297A mutant human IgG1; also called PL3#7-43 parental mtIgG1) VH: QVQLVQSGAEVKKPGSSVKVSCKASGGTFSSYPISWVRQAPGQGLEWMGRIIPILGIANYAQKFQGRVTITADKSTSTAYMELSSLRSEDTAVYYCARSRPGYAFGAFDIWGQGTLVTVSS VL: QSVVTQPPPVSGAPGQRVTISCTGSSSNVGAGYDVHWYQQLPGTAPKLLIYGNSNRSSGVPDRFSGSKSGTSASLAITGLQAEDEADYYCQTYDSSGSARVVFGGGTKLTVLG = ~2 ng/mL
• anti-PD-L1 ref-2 (IgG2) (antibody, V domains shown) VH: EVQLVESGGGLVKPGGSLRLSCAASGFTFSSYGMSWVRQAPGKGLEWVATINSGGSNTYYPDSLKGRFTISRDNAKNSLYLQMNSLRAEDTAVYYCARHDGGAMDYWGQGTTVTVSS VL: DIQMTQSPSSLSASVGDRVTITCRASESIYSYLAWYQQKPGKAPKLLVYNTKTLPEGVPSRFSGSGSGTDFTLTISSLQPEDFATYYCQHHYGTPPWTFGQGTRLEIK = ~2 ng/mL
• PL3#7-19 mtIgG1 (antibody, V domains shown, Antibody was biotinylated (NHS-PEG4-biotin, sites not specified) for the Octet assay of Table 11., N297A mutant human IgG1; also called PL3#7-19 parental mtIgG1) VH: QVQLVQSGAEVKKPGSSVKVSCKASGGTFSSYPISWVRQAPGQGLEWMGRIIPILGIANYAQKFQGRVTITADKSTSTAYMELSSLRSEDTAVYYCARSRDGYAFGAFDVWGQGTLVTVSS VL: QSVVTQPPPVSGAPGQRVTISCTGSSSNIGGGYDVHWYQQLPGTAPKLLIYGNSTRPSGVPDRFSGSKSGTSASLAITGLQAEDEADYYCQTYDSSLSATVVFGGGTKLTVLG = ~10 ng/mL
• PL3#7-54 mtIgG1 (antibody, V domains shown, Antibody was biotinylated (NHS-PEG4-biotin, sites not specified) for the Octet assay of Table 11., N297A mutant human IgG1) VH: QVQLVQSGAEVKKPGSSVKVSCKASGGTFSSYPISWVRQAPGQGLEWMGRIIPILGIADYAQKFQGRVTITADKSTSTAYMELSSLRSEDTAVYYCARSRPGYAFGAFDIWGQGTLVTVSS VL: QSVVTQPPPVSGAPGQRVTISCTGSSSNIGQGYDVHWYQQLPGTAPKLLIYANSNRPSGVPDRFSGSKSGTSASLAITGLQAEDEADYYCQTYDSSLSARVVFGGGTKLTVLG = ~1 ng/mL
